Reference for the values: patent US5635161A

- experiment notes: Bioavailability / plasma pharmacokinetics after inhalation (MDI) versus i.v. in tracheostomized dogs
- Type: in vivo
- condition description: dog, in vivo, inhaled or intranasal, 0.5 mg/kg, Plasma concentration (5-LO Inhibitor Levels)

[
  {
    "molecule": "CC(C#Cc1ccc(Cc2ccc(F)cc2)s1)N(O)C(N)=O (stereo not shown)",
    "value unit": "ng/mL",
    "concentration at 24 h": 50
  }
]

---

- experiment notes: Bioavailability / plasma pharmacokinetics after inhalation (MDI) versus i.v. in tracheostomized dogs
- condition description: dog, in vivo, iv, 0.5 mg/kg, Plasma concentration (5-LO Inhibitor Levels)

[
  {
    "compound": "CC(C#Cc1ccc(Cc2ccc(F)cc2)s1)N(O)C(N)=O (stereo not shown) [5-LO inhibitor #1]",
    "concentration at 6 h": "300 ng/mL"
  }
]

---

- experiment notes: Bioavailability / plasma pharmacokinetics after inhalation (MDI) versus i.v. in tracheostomized dogs
- Format: in vivo
- condition description: dog, in vivo, inhaled or intranasal, 0.5 mg/kg, drug levels maintained

[
  {
    "molecule": "CC(C#Cc1ccc(Cc2ccc(F)cc2)s1)N(O)C(N)=O (stereo not shown) [5-LO inhibitor #1]",
    "concentration at 12 h": "≥ 70 ng/mL"
  }
]

---

- experiment notes: Bioavailability / plasma pharmacokinetics after inhalation (MDI) versus i.v. in tracheostomized dogs
- Assay type: in vivo
- condition description: dog, in vivo, inhaled or intranasal, 0.5 mg/kg, Plasma concentration (5-LO Inhibitor Levels)
measure: concentration at 1 h (ng/mL)

[
  {
    "molecule": "CC(C#Cc1ccc(Cc2ccc(F)cc2)s1)N(O)C(N)=O (stereo not shown)",
    "value unit": "ng/mL",
    "measured number": 30
  }
]

---

- experiment notes: Bioavailability / plasma pharmacokinetics after inhalation (MDI) versus i.v. in tracheostomized dogs
- condition description: dog, in vivo, inhaled or intranasal, 0.5 mg/kg

[
  {
    "molecule": "CC(C#Cc1ccc(Cc2ccc(F)cc2)s1)N(O)C(N)=O (stereo not shown) [5-LO inhibitor #1]",
    "AUC(0-t) at 24 h": "1600 ng·h/mL"
  }
]

---

- experiment notes: Bioavailability / plasma pharmacokinetics after inhalation (MDI) versus i.v. in tracheostomized dogs
- condition description: dog, in vivo, inhaled or intranasal, 0.5 mg/kg, Plasma concentration (5-LO Inhibitor Levels)

[
  {
    "compound": "CC(C#Cc1ccc(Cc2ccc(F)cc2)s1)N(O)C(N)=O (stereo not shown) [5-LO inhibitor #1]",
    "value unit": "ng/mL",
    "concentration at 5 h": 80
  }
]

---

- experiment notes: Bioavailability / plasma pharmacokinetics after inhalation (MDI) versus i.v. in tracheostomized dogs
- Assay type: in vivo
- condition description: dog, in vivo, inhaled or intranasal, 0.5 mg/kg
- Protocol: All quantitative analyses for 5-LO inhibitor #1 formulations were performed by high pressure liquid chromatography (HPLC). […] Using a test preparation containing 25 mg/mL 5-LO inhibitor #1 and 2.5 mg/mL olive oil in HFC-134a propellant, pulmonary absorption and in vivo distribution (i.e. bioavailibility factors) were assessed in four tracheostomized dogs (Marshall Farms, N.Y.) weighing about 10 kilograms (kg) each. […]
measure: Tmax (h)

[
  {
    "compound": "CC(C#Cc1ccc(Cc2ccc(F)cc2)s1)N(O)C(N)=O (stereo not shown) [5-LO inhibitor #1]",
    "value unit": "h",
    "measured number": 10.4
  }
]

---

- experiment notes: Bioavailability / plasma pharmacokinetics after inhalation (MDI) versus i.v. in tracheostomized dogs
- condition description: dog, in vivo, inhaled or intranasal, 0.5 mg/kg, Plasma concentration (5-LO Inhibitor Levels)

[
  {
    "compound": "CC(C#Cc1ccc(Cc2ccc(F)cc2)s1)N(O)C(N)=O (stereo not shown)",
    "concentration at 3.5 h (ng/mL)": 90
  }
]

---

- experiment notes: Bioavailability / plasma pharmacokinetics after inhalation (MDI) versus i.v. in tracheostomized dogs
- condition description: dog, in vivo, iv, 0.5 mg/kg, Plasma concentration (5-LO Inhibitor Levels)

[
  {
    "compound": "CC(C#Cc1ccc(Cc2ccc(F)cc2)s1)N(O)C(N)=O (stereo not shown)",
    "value unit": "ng/mL",
    "concentration at 2 h": 480
  }
]

---

- experiment notes: Bioavailability / plasma pharmacokinetics after inhalation (MDI) versus i.v. in tracheostomized dogs
- condition description: dog, in vivo, iv, 0.5 mg/kg

[
  {
    "molecule": "CC(C#Cc1ccc(Cc2ccc(F)cc2)s1)N(O)C(N)=O (stereo not shown)",
    "value unit": "ng·h/mL",
    "AUC(0-t) at 24 h": 5060
  }
]

---

- experiment notes: Bioavailability / plasma pharmacokinetics after inhalation (MDI) versus i.v. in tracheostomized dogs
- condition description: dog, in vivo, inhaled or intranasal, 0.5 mg/kg, Plasma concentration (5-LO Inhibitor Levels)

[
  {
    "molecule": "CC(C#Cc1ccc(Cc2ccc(F)cc2)s1)N(O)C(N)=O (stereo not shown) [5-LO inhibitor #1]",
    "concentration at 2 h (ng/mL)": 40
  }
]

---

- experiment notes: Bioavailability / plasma pharmacokinetics after inhalation (MDI) versus i.v. in tracheostomized dogs
- condition description: dog, in vivo, iv, 0.5 mg/kg, Plasma concentration (5-LO Inhibitor Levels)
measure: concentration at 12 h

[
  {
    "compound": "CC(C#Cc1ccc(Cc2ccc(F)cc2)s1)N(O)C(N)=O (stereo not shown)",
    "measure": "concentration at 12 h",
    "result": "~200 ng/mL"
  }
]
